Assay: HepG2 cytotoxicity, primary screen, cytotoxicity control for P. falciparum antimalarial project, cell-based, ATP luminescence (AID 2303)
Conditions: HepG2 viability, 24-48 h, at 10 µM
Calls of active or inactive are those of the source.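 Rule for the calls: active = inhibition above 50%; inactive = the rest.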
Labels: True = active, False = inactive

compound="N#Cc1cncc(-c2nc3c(N4CCCC(N)C4)cccc3n2CCNCc2ccccc2)c1 (stereo not given)" category_label=False
compound="NCC1CCCN1Cc1cccc(-c2cccc(-c3nc4ccc(F)cc4[nH]3)c2)c1 (stereo not given)" category_label=False
compound=Cc1ccc(NC(=O)NC2CCN(CCCCCNC(=O)/C=C/c3ccc(Cl)c(Cl)c3)CC2)cc1C category_label=False
compound=COc1ccc(NC(=O)/C=C/c2ccccc2Cl)cc1OCCN1CCC(O)(c2ccc(Cl)c(C(F)(F)F)c2)CC1 category_label=False
compound="Cc1ccccc1C1CCN(C2CCC(NC(=O)/C=C/c3cccc(Cl)c3Cl)CC2)CC1 (stereo not given)" category_label=True
